# system: T1, human KLB on CHOK1-hKLB cells (human, UniProt Q86Z14 1-1044)
# T1 construct: whole, on cells; also called human KLB antigen; β-Klotho
# T1 sequence (looked up): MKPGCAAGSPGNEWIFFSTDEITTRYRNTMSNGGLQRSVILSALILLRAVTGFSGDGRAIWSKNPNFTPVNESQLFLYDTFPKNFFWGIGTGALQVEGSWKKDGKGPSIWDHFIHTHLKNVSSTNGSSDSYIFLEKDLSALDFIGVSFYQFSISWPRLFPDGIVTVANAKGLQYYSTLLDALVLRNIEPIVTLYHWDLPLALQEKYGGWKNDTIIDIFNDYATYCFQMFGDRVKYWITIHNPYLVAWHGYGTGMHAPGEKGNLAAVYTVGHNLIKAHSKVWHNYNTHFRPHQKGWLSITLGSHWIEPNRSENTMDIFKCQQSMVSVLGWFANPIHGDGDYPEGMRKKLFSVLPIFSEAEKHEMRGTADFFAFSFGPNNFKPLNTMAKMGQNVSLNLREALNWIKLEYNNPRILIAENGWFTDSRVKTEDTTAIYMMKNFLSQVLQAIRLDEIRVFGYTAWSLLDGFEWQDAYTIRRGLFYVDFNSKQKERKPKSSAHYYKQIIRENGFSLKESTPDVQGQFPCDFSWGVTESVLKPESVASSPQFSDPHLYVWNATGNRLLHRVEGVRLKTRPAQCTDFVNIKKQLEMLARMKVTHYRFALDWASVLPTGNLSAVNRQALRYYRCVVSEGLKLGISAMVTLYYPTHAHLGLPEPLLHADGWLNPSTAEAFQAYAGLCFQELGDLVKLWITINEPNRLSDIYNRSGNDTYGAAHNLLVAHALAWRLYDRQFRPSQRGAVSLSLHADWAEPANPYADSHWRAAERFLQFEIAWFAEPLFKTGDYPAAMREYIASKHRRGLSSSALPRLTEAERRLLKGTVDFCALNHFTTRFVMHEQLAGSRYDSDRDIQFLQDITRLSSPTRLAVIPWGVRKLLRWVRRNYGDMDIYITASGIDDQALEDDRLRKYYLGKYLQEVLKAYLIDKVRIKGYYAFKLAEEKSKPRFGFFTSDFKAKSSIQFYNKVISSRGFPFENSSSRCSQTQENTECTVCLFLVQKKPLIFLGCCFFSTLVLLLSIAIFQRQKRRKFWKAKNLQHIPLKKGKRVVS
# test details: flow cytometry on CHOK1-hKLB cells
Entries annotated with measured pEC50
As a rule, pEC50 stands for the negative log10 of the concentration, concentration in M.

Past entries and their recorded results:
[
  {
    "binder": "hAb18-17 (antibody, human IgG1, kappa, L234A L235A, V domains shown, humanized mAb-18: hAb18VH1 + hAb18VL2-11; human IgG1 (L234A, L235A) / kappa constant regions) VH: EVQLVQSGAEVKKPGASVKVSCKASGYTFTDYAMHWVRQAPGQRLEWMGVISTYSGTTNYNQNFKGRVTITVDKSASTAYMELSSLRSEDTAVYYCARSGPLDYWGQGTTVTVSS VL: ENVLTQSPDFQSVTPKEKVTITCRASSSVTSSYLHWYQQKPDQSPKLWIYSTSNLASGVPSRFSGSGSGTDYTLTINSLEAEDAATYYCQQYSGYPLTFGQGTKLEIKR",
    "pEC50": 8.74
  },
  {
    "binder": "mAb18-hIgG1 (antibody, V domains shown, chimeric: murine mAb-18 variable regions on human IgG1 (L234A, L235A) / kappa constant regions; also called chimeric antibody of mAb18) VH: QVQLQQSGPELVRPGVSVKISCKGSGYTFTDYAMHWVKQTHAKSLEWIGVISTYSGTTNYNQNFKGKATVTVDKSSSTAYMELARLTSEDSAIYYCARSGPLDYWGQGTSLTVSS VL: ENVLTQSPAIMSASPGEKVTMTCRASSSVSSSYLHWYQQKSGASPKLWIYSTSNLASGVPERFSGSGSGTSYSLTISSVEAEDAATYYCQQYSGYPLTFGSGTKLEIKR",
    "pEC50": 8.67
  },
  {
    "binder": "hAb18-18 (antibody, human IgG1, kappa, L234A L235A, V domains shown, humanized mAb-18: hAb18VH1 + hAb18VL2-12; human IgG1 (L234A, L235A) / kappa constant regions) VH: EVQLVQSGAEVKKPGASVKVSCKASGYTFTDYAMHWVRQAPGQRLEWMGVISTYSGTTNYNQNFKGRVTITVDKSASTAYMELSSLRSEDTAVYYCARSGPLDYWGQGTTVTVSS VL: ENVLTQSPDFQSVTPKEKVTITCRASSSLSSSYLHWYQQKPDQSPKLWIYSTSNLASGVPSRFSGSGSGTDYTLTINSLEAEDAATYYCQQYSGYPLTFGQGTKLEIKR",
    "pEC50": 8.77
  },
  {
    "binder": "hAb18-2 (antibody, human IgG1, kappa, L234A L235A, V domains shown, humanized mAb-18: hAb18VH1 + hAb18VL2; human IgG1 (L234A, L235A) / kappa constant regions) VH: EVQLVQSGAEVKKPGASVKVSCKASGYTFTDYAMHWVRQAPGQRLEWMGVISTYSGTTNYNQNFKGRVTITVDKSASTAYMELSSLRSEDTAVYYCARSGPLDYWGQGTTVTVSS VL: ENVLTQSPDFQSVTPKEKVTITCRASSSVSSSYLHWYQQKPDQSPKLWIYSTSNLASGVPSRFSGSGSGTDYTLTINSLEAEDAATYYCQQYSGYPLTFGQGTKLEIKR",
    "pEC50": 8.80
  }
]

Switching to the query record.
QUERY: Form field: reported pEC50 of hAb99-1 (antibody, human IgG1, kappa, L234A L235A, V domains shown, humanized mAb-99: hAb99VH1 + hAb99VL1; human IgG1 (L234A, L235A) / kappa constant regions) VH: EVQLVQSGAEVKKPGASVKVSCKASGYTFTNYGINWVRQAPGQRLEWMGYIYIGNGDIEYNAKFKGRVTITSDTSASTAYMELSSLRSEDTAVYYCARGRGLGHFDVWGQGTTVTVSS VL: DIQMTQSPSSLSASVGDRVTITCRASKSISKFLAWYQQKPGKANKLLIYSGSTLQSGVPSRFSGSGSGTDFTLTISSLQPEDFATYYCQQHNEYPWTFGGGTKVEIKR
RESULT: 9.21

Taken from patent US20240270874A1.
